- measurementDescription: inhibitors of induced NF-kB luciferase reporter, primary screen, TCR NF-kB activation inhibitor project, cell-based, luminescence, uHTS (AID 435003)
- conditionNotes: Jurkat, PMA/ionomycin-induced NF-kB luciferase reporter, at 4 µM, active compounds read high
Out of some 330,000 compounds screened, about 1,700 (0.52%) were called active. This is one part of a sample in which actives are shown more often than they occur.
valueType: inhibition (%)
Reply numerically in %, unit not repeated.

O=C(Nc1ccc(Cl)cc1)C1c2cccc[n+]2CC(=O)N1Cc1ccc2c(c1)OCO2 (stereo not given) :: -3.1
CC[n+]1cc(C)ccc1/C=C/c1ccc(N(C)C)cc1 :: 84.4

Switching to the query record.
Fill in the blank: the reported inhibition of N#Cc1c(NC(=O)c2ccc(N3CCOCC3)c([N+](=O)[O-])c2)sc2c1CCCC2 is ____. -30

###

- measurementDescription: inhibitors of induced NF-kB luciferase reporter, primary screen, TCR NF-kB activation inhibitor project, cell-based, luminescence, uHTS (AID 435003)
- conditionNotes: Jurkat, PMA/ionomycin-induced NF-kB luciferase reporter, at 4 µM
About 1,700 (0.52%) of roughly 330,000 compounds were called active. No stated cut-off is given here; in the data, active means inhibition above about 50%; inactive means the rest. What follows is part of a selection rich in actives, with near analogues and random picks from the rest.
Respond only with the outcome that fits, drawn from label 1 (active), label 0 (inactive)

Cc1cc(C(=O)OCC(=O)NCc2ccco2)c(C)n1-c1ccccc1 :: label 1
CC1(C)CC(N2CCN(C(c3ccccc3)c3ccccc3)CC2)=CC(=[N+]2CCCCC2)C1 :: label 1

Query: recorded result category for CC1CN(C2CCN(C(=O)COc3ccccc3)CC2)CC(C)O1 (stereo not given) in this test label 0

Also check Cc1ccc(-n2c(C)cc(/C=N/Nc3ccc([N+](=O)[O-])cn3)c2C)c(C)c1 label 0

Also check Cc1ccc(N2CCN(c3ccc([N+](=O)[O-])cn3)CC2)c(C)c1 label 1

###

- measurementDescription: inhibitors of induced NF-kB luciferase reporter, primary screen, TCR NF-kB activation inhibitor project, cell-based, luminescence, uHTS (AID 435003)
- conditionNotes: Jurkat, PMA/ionomycin-induced NF-kB luciferase reporter, at 4 µM, active compounds read high
Screen size: about 330,000 compounds; about 1,700 (0.52%) were called active. What follows is part of a selection rich in actives, with near analogues and random picks from the rest.
valueType: inhibition (%)
Reply numerically in %, unit not repeated.

For orientation, consider the following solved cases.
Cc1ccc(OCCNC(=O)CN2C(=O)NC3(CCCC3)C2=O)cc1 :: 7.61
COc1cc([C@H](Cc2ccccc2)NC(C)=O)oc(=O)c1 :: 8.38
O=C1c2ccccc2C(Nc2ccc3c(c2)OCCO3)N1Cc1ccco1 (configuration not stated) :: 4.45
Nc1c(-c2ccc(F)cc2)cnn1C1CCS(=O)(=O)C1 (configuration not stated) :: -7.3
Oc1ccc(/C=N/Nc2ccc(C(F)(F)F)cn2)cc1O :: 59.5

Switching to the query record.
Fill in the blank: the reported inhibition of CC1(C)CN(c2ccc(-c3ccnc4ncnn34)cc2)C1=O is ____. -3.78

###

- measurementDescription: inhibitors of induced NF-kB luciferase reporter, primary screen, TCR NF-kB activation inhibitor project, cell-based, luminescence, uHTS (AID 435003)
- conditionNotes: Jurkat, PMA/ionomycin-induced NF-kB luciferase reporter, at 4 µM, active compounds read high
Hit rate of the full screen: of about 330,000 compounds, about 1,700 (0.52%) were called active. The sample holds actives, similar compounds and a random draw of the others, so the mix is not that of the screen.
valueType: inhibition (%)
Reply numerically in %, unit not repeated.

Cc1cc(N/N=C\c2ccc(Br)cc2)nc(-n2nc(C)cc2C)n1 :: 27.2
COc1ccc(Nc2cc(C)nc(-n3nc(C)cc3C)n2)cc1 :: 68.7
COC(c1ccccc1)c1nnc(CCC(=O)N2CCN(CCOc3ccccc3)CC2)o1 (stereo unspecified) :: 14.1

Fill in the blank: the reported inhibition of COc1ccc(NC(=O)c2nc(-n3nc(C)cc3C)ccc2Cl)cc1Cl is ____. -8.27

Also check COc1ccc(NC(=O)CN2C(=O)COc3ccc(S(=O)(=O)N4CCOCC4)cc32)c(OC)c1 0.923

Also check COc1ccc(C(C)=O)cc1CSc1nc2nc(C)cc(C)n2n1 5.26

These entries and their values trace back to PubChem BioAssay AID435003.
